Target: T1, EsCas13d, nuclease-dead (Eubacterium siraeum, UniProt B0MS50, R295A;H300A;R849A;H854A)
T1 sequence: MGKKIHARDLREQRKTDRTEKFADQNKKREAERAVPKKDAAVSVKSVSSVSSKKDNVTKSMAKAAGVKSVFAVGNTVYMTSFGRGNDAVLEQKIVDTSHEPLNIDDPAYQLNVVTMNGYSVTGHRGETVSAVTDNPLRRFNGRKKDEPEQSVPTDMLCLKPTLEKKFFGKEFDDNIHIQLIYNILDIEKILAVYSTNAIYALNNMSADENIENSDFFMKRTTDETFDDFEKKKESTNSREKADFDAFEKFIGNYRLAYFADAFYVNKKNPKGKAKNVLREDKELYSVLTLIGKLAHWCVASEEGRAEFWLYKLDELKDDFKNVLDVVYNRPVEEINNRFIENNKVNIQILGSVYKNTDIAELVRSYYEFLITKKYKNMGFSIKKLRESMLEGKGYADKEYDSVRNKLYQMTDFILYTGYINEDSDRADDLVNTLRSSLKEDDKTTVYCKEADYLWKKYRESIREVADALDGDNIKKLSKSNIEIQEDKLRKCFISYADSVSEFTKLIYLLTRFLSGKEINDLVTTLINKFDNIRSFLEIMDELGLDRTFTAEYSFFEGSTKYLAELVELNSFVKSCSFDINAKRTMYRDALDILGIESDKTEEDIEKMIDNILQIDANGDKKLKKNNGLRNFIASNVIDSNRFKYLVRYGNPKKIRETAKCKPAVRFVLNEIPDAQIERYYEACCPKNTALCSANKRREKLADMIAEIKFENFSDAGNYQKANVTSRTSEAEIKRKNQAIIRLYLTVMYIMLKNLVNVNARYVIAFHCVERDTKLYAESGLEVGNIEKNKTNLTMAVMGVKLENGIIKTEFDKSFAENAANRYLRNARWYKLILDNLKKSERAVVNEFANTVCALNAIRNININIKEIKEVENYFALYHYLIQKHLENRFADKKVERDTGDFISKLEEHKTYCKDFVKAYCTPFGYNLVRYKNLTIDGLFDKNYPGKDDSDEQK
Test: crRNA (strand 1, pre-loaded); Mg2+; 40 mM Tris-HCl pH 7.5, 150 mM NaCl, 6 mM MgCl2, 1 mM DTT, 0.1% Tween-20, 0.2 mg/ml BSA; 25 C; 10 min per concentration, then washed
Conditions: tags: His6-TwinStrep-SUMO cleaved; N-terminal SNAP kept (SNAP-Surface 488); label: 3' end held by stalled T7 RNA polymerase
Outcome measure: pKd
Give bare numbers, as −log10 of the molar value.

Each of the following entries comes with a recorded value; kindly state pKd for each.
1. target 1 MT 5'PFS GGG 3'PFS UUC (mixed) RNA 1: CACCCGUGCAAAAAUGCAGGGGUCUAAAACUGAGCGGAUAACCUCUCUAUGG RNA 2: GGGAAUGGAUCCACAUCUACGAAUUCGGGCCAUAGAGAGGUUAUCCGCUCAUUCAGAUCGGAAGAGCACACGU
2. target 2 MT 5'PFS CUC 3'PFS UCC (mixed) RNA 1: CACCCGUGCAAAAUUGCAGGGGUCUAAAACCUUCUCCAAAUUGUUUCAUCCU RNA 2: GGGAAUGGAUCCACAUCUACGAAUUCCUCAGGAUGAAACAAUUUGGAGAAGUCCAGAUCGGAAGAGCACACGU
3. target 1 insC 3' of 20,insG 3' of 11 (mixed) RNA 1: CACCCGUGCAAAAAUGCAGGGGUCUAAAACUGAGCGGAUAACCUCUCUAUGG RNA 2: GGGAAUGGAUCCACAUCUACGAAUUCGUACCACUAGAGAGGUGUAUCCGCUCACCGAGAUCGGAAGAGCACACGU
4. target 3 insU 3' of 9,insA 3' of 8 (mixed) RNA 1: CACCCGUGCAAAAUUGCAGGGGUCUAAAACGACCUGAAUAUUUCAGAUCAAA RNA 2: GGGAAUGGAUCCACAUCUACGAAUUCGUUUUUGAUCUGAAAUAUUAUCAGGUCUGCAGAUCGGAAGAGCACACGU
5. target 1 insG 3' of 9,insG 3' of 8 (mixed) RNA 1: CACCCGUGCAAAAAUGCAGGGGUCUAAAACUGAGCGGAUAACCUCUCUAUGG RNA 2: GGGAAUGGAUCCACAUCUACGAAUUCGUACCAUAGAGAGGUUAGUGCCGCUCACCGAGAUCGGAAGAGCACACGU
6. target 3 del5,del22 (mixed) RNA 1: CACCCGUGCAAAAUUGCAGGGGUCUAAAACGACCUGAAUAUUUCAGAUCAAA RNA 2: GGGAAUGGAUCCACAUCUACGAAUUCGUUUUGAUCUGAAAUAUUCGGUCUGCAGAUCGGAAGAGCACACGU
7. target 1 U3A,U10C (mixed) RNA 1: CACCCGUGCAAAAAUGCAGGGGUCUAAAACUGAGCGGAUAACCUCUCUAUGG RNA 2: GGGAAUGGAUCCACAUCUACGAAUUCGUACCAUAGAGAGGUCAUCCGCACACCGAGAUCGGAAGAGCACACGU

1: 7.79; 2: 8.28; 3: 8.18; 4: 7.15; 5: 7.76; 6: 7.53; 7: 7.71

Using known records, supply pKd for target 1 MT 5'PFS UCG 3'PFS UUG (mixed) RNA 1: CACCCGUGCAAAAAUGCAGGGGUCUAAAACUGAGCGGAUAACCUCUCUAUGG RNA 2: GGGAAUGGAUCCACAUCUACGAAUUCUCGCCAUAGAGAGGUUAUCCGCUCAUUGAGAUCGGAAGAGCACACGU
7.37
